Tested on: HCT-116
Experiment: NCI tumour cell line growth inhibition, 48 h
Active and inactive are the calls of the source. No stated cut-off is given here; in the data, active = GI50 up to about 1.1 µM and inactive = higher.
Outcomes you can answer with include only these: active, inactive

Answered examples (2):
GET /call?item= CCCCc1ccc(-n2c3nc(=O)n(C)c(=O)c-3nc3ccccc32)cc1 returns the recorded outcome of this test.
inactive

Now the compound COCOCC[C@@H]1CC=CC(NC(=O)OCc2ccccc2)C1/C=C/C(=O)CCC1OCCO1 (some centres undefined)
inactive

More entries:
GET /call?item= O=C(O)CCC1(CCC(=O)O)CCCCCCCCC(CCC(=O)O)(CCC(=O)O)C(=O)C1=O returns the recorded outcome of this test.
inactive

Now the compound COC1CCC(OS(C)(=O)=O)CO1 (centres undefined)
inactive

Now the compound CN(C)CCOc1ccc2[nH]c(C(=O)N3CC(CCl)c4c3cc(N)c3ccccc43)cc2c1 (centres undefined)
active

Now the compound CC1CN=C(N(C(=O)Nc2ccc(Cl)c(Cl)c2)c2ccccc2)S1 (centres undefined)
inactive

Now the compound Cc1ccc2c(c1)/C(=N/Nc1ccccc1[N+](=O)[O-])C(=O)N2
inactive

Now the compound CCOC(=O)C1(Cc2ccccc2)Cc2cc3c(cc2C1=O)CCC3 (centres undefined)
inactive

###

Tested on: OVCAR-5
Experiment: NCI tumour cell line growth inhibition, 48 h
Calls of active or inactive are those of the source. Cut-off read from the data, not from the text of the source: active = GI50 up to about 1.1 µM and inactive = higher.
The entries below are paired with their reported GI50.

Some molecules with known GI50 results, for comparison:
Requested read-out: GI50. Entry: Cc1ccc(C2=C(c3ccccc3)C(Br)(c3ccc(C)cc3)C(c3ccccc3)=C2c2ccc(C)cc2)cc1
> 100 µM (inactive)

Now the molecule CN(C)C(=S)SCc1ccccc1
> 100 µM (inactive)

Now the molecule CN(c1nc(=[N+](C)C)ss1)C1CCCCC1
> 100 µM (inactive)

Now the molecule Cc1ccccc1NC(=O)CC(=O)N1N=C(N2c3ccccc3Sc3ccccc32)CC1c1ccccc1 (configuration not stated)
> 100 µM (inactive)

Now the molecule COC1CCC(OS(C)(=O)=O)CO1 (configuration not stated)
42.2 µM (inactive)

Now the molecule O=C(CCCN1CCC2(CC1)/C(=N/C1CCCCC1)NC(=O)N2c1ccccc1)c1ccc(F)cc1
20.9 µM (inactive)

More entries:
Requested read-out: GI50. Entry: COc1ccc(/N=[N+](\[O-])c2ccc(OC)cc2)cc1
> 100 µM (inactive)

###

System: DMS-114
Assay: NCI tumour cell line growth inhibition, 48 h
Active and inactive are the calls of the source. No stated cut-off is given here; in the data, active = GI50 up to about 1.1 µM and inactive = higher.
attribute measured: GI50

Requested read-out: GI50. Entry: CC1CC2C(=O)N(c3ccccc3)C(=O)C2c2[nH]c3ccccc3c21 (stereo not given)
30.7 µM (inactive)

More entries:
Requested read-out: GI50. Entry: COC(=O)C1=C2CCC(=O)[C@@]2(C)C(OC(C)=O)C=CC1 (stereo not given in full)
32.7 µM (inactive)

Now the compound Cc1ccc(C)c(NC(=O)CC/C(=N\NC(=O)C(N)=O)C(C)C(=O)c2ccc(O)cc2)c1 (stereo not given)
> 100 µM (inactive)

Now the compound Nc1ccc(C(=O)O)c2[nH]c3ccccc3c(=O)c12
> 100 µM (inactive)

Now the compound CCc1ccccc1NC(=O)C(=O)C(C(=O)c1ccc(OC)cc1)c1ccc(OC)cc1 (stereo not given)
> 100 µM (inactive)

Now the compound CC1C=CC(=O)C(n2cc(F)c(=O)[nH]c2=O)O1 (stereo not given)
15.9 µM (inactive)
